Molecular target: Cytochrome P450 2C9 (Homo sapiens)
Sequence (P11712 whole entry): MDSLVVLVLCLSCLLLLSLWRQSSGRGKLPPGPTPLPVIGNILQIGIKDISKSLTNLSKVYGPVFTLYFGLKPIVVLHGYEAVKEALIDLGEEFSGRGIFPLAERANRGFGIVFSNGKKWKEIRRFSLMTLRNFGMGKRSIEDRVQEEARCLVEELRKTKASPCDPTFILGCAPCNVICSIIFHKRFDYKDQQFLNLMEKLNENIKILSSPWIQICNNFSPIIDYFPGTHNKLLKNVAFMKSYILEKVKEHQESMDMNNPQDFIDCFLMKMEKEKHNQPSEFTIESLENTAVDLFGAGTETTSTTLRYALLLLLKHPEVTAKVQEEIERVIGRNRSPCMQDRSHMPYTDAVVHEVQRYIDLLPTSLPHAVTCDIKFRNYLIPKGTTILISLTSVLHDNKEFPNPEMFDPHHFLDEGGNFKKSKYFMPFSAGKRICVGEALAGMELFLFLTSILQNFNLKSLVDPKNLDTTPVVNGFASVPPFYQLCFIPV
MEASURE_NAME: IC50

Looking up CC(=O)N1CC2(CC(Nc3cc4c(cn3)C3(CC3)CN(C[C@H](O)CN3CCc5ccccc5C3)C4=O)C2)C1 , I found its IC50 recorded as > 50 µM

---

Assay: Metabolic stability in rat liver microsomes assessed as half-life at 1 uM measured upto 240 mins
Type: ADME, Microsome
MEASURE_NAME: half-life at 1 µM (h)
Answer format: numeric, h implied, no suffix.

Looking up CC(=O)N1CC2(CC(Nc3cc4c(cn3)C3(CC3)CN(C[C@H](O)CN3CCc5ccccc5C3)C4=O)C2)C1 , I found its half-life at 1 µM recorded as 1.43
